# Test system: OVCAR-5 complex spheroids, viability
# measurementNotes: Anticancer human tumor OVCAR-5 cell line growth inhibition
# measurementContext: second compound 0.1 µM; first compound 0.0949 µM; hits give low values
Label T when viability, T/C < 80%; otherwise F.

compound: COc1cc(C2c3cc4c(cc3C(OC3OC5COC(C)OC5C(O)C3O)C3COC(=O)C23)OCO4)cc(OC)c1O (configuration not stated) + NC1CCC(NC2CC2c2ccccc2)CC1
targetUnderTest: OVCAR-5 complex spheroids, viability
className: F

compound: O=C(C=Cc1cccc(S(=O)(=O)Nc2ccccc2)c1)NO + NC1CCC(NC2CC2c2ccccc2)CC1
targetUnderTest: OVCAR-5 complex spheroids, viability
className: T

compound: Nc1ccccc1NC(=O)c1ccc(CNC(=O)OCc2cccnc2)cc1 + NC1CC1c1ccc(-c2cccc(O)c2)cc1
targetUnderTest: OVCAR-5 complex spheroids, viability
className: T

compound: NS(=O)(=O)OCC1CC(n2ccc3c(NC4CCc5ccccc54)ncnc32)CC1O (configuration not stated) + NC1CC1c1ccc(-c2cccc(O)c2)cc1
targetUnderTest: OVCAR-5 complex spheroids, viability
className: F

compound: Nc1ncn(C2CC(O)C(CO)S2)c(=O)n1 (configuration not stated) + NC1CCC(NC2CC2c2ccccc2)CC1
targetUnderTest: OVCAR-5 complex spheroids, viability
className: F

compound: CCN(c1cc(-c2ccc(CN3CCOCC3)cc2)cc(C(=O)NCc2c(C)cc(C)[nH]c2=O)c1C)C1CCOCC1 + NC1CCC(NC2CC2c2ccccc2)CC1
targetUnderTest: OVCAR-5 complex spheroids, viability
className: F

compound: NS(=O)(=O)OCC1CC(n2ccc3c(NC4CCc5ccccc54)ncnc32)CC1O (configuration not stated) + NC1CCC(NC2CC2c2ccccc2)CC1
targetUnderTest: OVCAR-5 complex spheroids, viability
className: T

---

# System: OVCAR-5 complex spheroids, viability
# measurementNotes: Anticancer human tumor OVCAR-5 cell line growth inhibition; active = viability on the fitted dose curve at most 10% of control; inactive = the rest
# measurementContext: second compound 0.316 µM; first compound 0.0949 µM
Outcome codes: 1 for active, -1 for inactive

compound: CCc1c2c(nc3ccc(O)cc13)-c1cc3c(c(=O)n1C2)COC(=O)[C@]3(O)CC + NC1CC1c1ccc(-c2cccc(O)c2)cc1
className: 1
--
compound: Nc1ccn(C2OC(CO)C(O)C2(F)F)c(=O)n1 (centres undefined) + NC1CCC(NC2CC2c2ccccc2)CC1
className: -1
--
compound: Nc1ncn(C2CC(O)C(CO)S2)c(=O)n1 (centres undefined) + NC1CC1c1ccc(-c2cccc(O)c2)cc1
className: -1
--
compound: CCN(c1cc(-c2ccc(CN3CCOCC3)cc2)cc(C(=O)NCc2c(C)cc(C)[nH]c2=O)c1C)C1CCOCC1 + NC1CC1c1ccc(-c2cccc(O)c2)cc1
className: -1
--
compound: Nc1ccccc1NC(=O)c1ccc(CNC(=O)OCc2cccnc2)cc1 + NC1CCC(NC2CC2c2ccccc2)CC1
className: -1
--
compound: CCc1c2c(nc3ccc(O)cc13)-c1cc3c(c(=O)n1C2)COC(=O)[C@]3(O)CC + NC1CCC(NC2CC2c2ccccc2)CC1
className: 1
--
compound: NS(=O)(=O)OCC1CC(n2ccc3c(NC4CCc5ccccc54)ncnc32)CC1O (centres undefined) + NC1CCC(NC2CC2c2ccccc2)CC1
className: -1
--
compound: Nc1ncn(C2CC(O)C(CO)S2)c(=O)n1 (centres undefined) + NC1CCC(NC2CC2c2ccccc2)CC1
className: -1
--
compound: O=C(C=Cc1cccc(S(=O)(=O)Nc2ccccc2)c1)NO + NC1CC1c1ccc(-c2cccc(O)c2)cc1
className: -1

---

# Test system: OVCAR-5 complex spheroids, viability
# measurementNotes: Anticancer human tumor OVCAR-5 cell line growth inhibition;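 further: spheroids exposed to agents for seven days; 100% = DMSO vehicle control wells viability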
# measurementContext: second compound 10 µM; first compound 0.0316 µM; hits give low values
Readings of viability, T/C for the listed molecules

molecule: CC1COCCN1c1cc(-c2ccnn2C)c2ccnc(-c3ccn[nH]3)c2n1 (centres undefined) + NC1CC1c1ccc(-c2cccc(O)c2)cc1
unitAnnotation: %
viability, T/C: 42.5
//
molecule: O=C(c1cc(Cc2n[nH]c(=O)c3ccccc23)ccc1F)N1CCN(C(=O)C2CC2)CC1 + NC1CCC(NC2CC2c2ccccc2)CC1
unitAnnotation: %
viability, T/C: 92.4
//
molecule: CC(C)c1c(-c2ccccc2)nc2c(C#N)c[nH]n2c1=O + NC1CC1c1ccc(-c2cccc(O)c2)cc1
unitAnnotation: %
viability, T/C: 82.2
//
molecule: O=C(c1cc(Cc2n[nH]c(=O)c3ccccc23)ccc1F)N1CCN(C(=O)C2CC2)CC1 + NC1CC1c1ccc(-c2cccc(O)c2)cc1
unitAnnotation: %
viability, T/C: 95.8

---

# System: OVCAR-5 complex spheroids, viability
# measurementNotes: Anticancer human tumor OVCAR-5 cell line growth inhibition; active = viability on the fitted dose curve at most 10% of control; inactive = the rest;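 further: spheroids exposed to agents for seven days; 100% = DMSO vehicle control wells viability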
# measurementContext: second compound 0.1 µM; first compound 0.1 µM
Outcome codes: active, inactive

compound: CC(C)CC(NC(=O)C(Cc1ccccc1)NC(=O)c1cnccn1)B(O)O (configuration not stated) + NC1CC1c1ccc(-c2cccc(O)c2)cc1
className: active
--
compound: Cn1ncnc1C1c2n[nH]c(=O)c3cc(F)cc(c23)NC1c1ccc(F)cc1 (configuration not stated) + NC1CC1c1ccc(-c2cccc(O)c2)cc1
className: inactive
--
compound: O=C(c1cc(Cc2n[nH]c(=O)c3ccccc23)ccc1F)N1CCN(C(=O)C2CC2)CC1 + NC1CC1c1ccc(-c2cccc(O)c2)cc1
className: inactive
--
compound: O=C(C=Cn1cnc(-c2cc(C(F)(F)F)cc(C(F)(F)F)c2)n1)NNc1cnccn1 + NC1CCC(NC2CC2c2ccccc2)CC1
className: inactive
--
compound: COc1ccc([C@@H](O)c2cc(-c3ncnc4cc(N5CCOCC5)ccc34)c(F)cc2Cl)nn1 + NC1CC1c1ccc(-c2cccc(O)c2)cc1
className: inactive
--
compound: COc1cc(Nc2ncc3c(n2)-c2ccc(Cl)cc2C(c2c(F)cccc2OC)=NC3)ccc1C(=O)O + NC1CCC(NC2CC2c2ccccc2)CC1
className: inactive
--
compound: CC(C)c1c(-c2ccccc2)nc2c(C#N)c[nH]n2c1=O + NC1CC1c1ccc(-c2cccc(O)c2)cc1
className: inactive

---

# Tested on: OVCAR-5 complex spheroids, viability
# measurementNotes: Anticancer human tumor OVCAR-5 cell line growth inhibition;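 further: spheroids exposed to agents for seven days; 100% = DMSO vehicle control wells viability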
# measurementContext: second compound 0.1 µM; first compound 0.000316 µM; hits give low values
Readings of viability, T/C for the listed compounds

compound: CC(C)CC(NC(=O)CNC(=O)c1cc(Cl)ccc1Cl)B1OC(=O)CC(CC(=O)O)(C(=O)O)O1 (stereo not drawn) + NC1CC1c1ccc(-c2cccc(O)c2)cc1
targetUnderTest: OVCAR-5 complex spheroids, viability
unitAnnotation: %
viability, T/C: 92.4
//
compound: CC[C@@]1(O)C(=O)OCc2c1cc1n(c2=O)Cc2cc3c(CN(C)C)c(O)ccc3nc2-1 + NC1CCC(NC2CC2c2ccccc2)CC1
targetUnderTest: OVCAR-5 complex spheroids, viability
unitAnnotation: %
viability, T/C: 103
//
compound: CC(C)CC(NC(=O)CNC(=O)c1cc(Cl)ccc1Cl)B1OC(=O)CC(CC(=O)O)(C(=O)O)O1 (stereo not drawn) + NC1CCC(NC2CC2c2ccccc2)CC1
targetUnderTest: OVCAR-5 complex spheroids, viability
unitAnnotation: %
viability, T/C: 96.8
//
compound: CC(C)CC(NC(=O)C(Cc1ccccc1)NC(=O)c1cnccn1)B(O)O (stereo not drawn) + NC1CCC(NC2CC2c2ccccc2)CC1
targetUnderTest: OVCAR-5 complex spheroids, viability
unitAnnotation: %
viability, T/C: 92
//
compound: CC[C@@]1(O)C(=O)OCc2c1cc1n(c2=O)Cc2cc3c(CN(C)C)c(O)ccc3nc2-1 + NC1CC1c1ccc(-c2cccc(O)c2)cc1
targetUnderTest: OVCAR-5 complex spheroids, viability
unitAnnotation: %
viability, T/C: 96.1
//
compound: Cn1ncnc1C1c2n[nH]c(=O)c3cc(F)cc(c23)NC1c1ccc(F)cc1 (stereo not drawn) + NC1CC1c1ccc(-c2cccc(O)c2)cc1
targetUnderTest: OVCAR-5 complex spheroids, viability
unitAnnotation: %
viability, T/C: 101
//
compound: Cn1ncnc1C1c2n[nH]c(=O)c3cc(F)cc(c23)NC1c1ccc(F)cc1 (stereo not drawn) + NC1CCC(NC2CC2c2ccccc2)CC1
targetUnderTest: OVCAR-5 complex spheroids, viability
unitAnnotation: %
viability, T/C: 109
//
compound: CC(C)CC(NC(=O)C(Cc1ccccc1)NC(=O)c1cnccn1)B(O)O (stereo not drawn) + NC1CC1c1ccc(-c2cccc(O)c2)cc1
targetUnderTest: OVCAR-5 complex spheroids, viability
unitAnnotation: %
viability, T/C: 111

---

# Tested on: OVCAR-5 complex spheroids, viability
# measurementNotes: Anticancer human tumor OVCAR-5 cell line growth inhibition;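 further: spheroids exposed to agents for seven days; 100% = DMSO vehicle control wells viability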
# measurementContext: second compound 10 µM; first compound 1 µM; hits give low values
endpoint: viability, T/C (%)

compound: COc1ccc([C@@H](O)c2cc(-c3ncnc4cc(N5CCOCC5)ccc34)c(F)cc2Cl)nn1 + NC1CCC(NC2CC2c2ccccc2)CC1
endpointValue: 50.8

compound: COc1ccc([C@@H](O)c2cc(-c3ncnc4cc(N5CCOCC5)ccc34)c(F)cc2Cl)nn1 + NC1CC1c1ccc(-c2cccc(O)c2)cc1
endpointValue: 36.6

compound: COc1cc(Nc2ncc3c(n2)-c2ccc(Cl)cc2C(c2c(F)cccc2OC)=NC3)ccc1C(=O)O + NC1CCC(NC2CC2c2ccccc2)CC1
endpointValue: 45.5
